- Subject Of Test: N-terminal Xaa-Pro-Lys N-methyltransferase 1 (Homo sapiens, UniProt Q9BV86)
- Test Method Notes: Inhibition of NTMT1 (unknown origin) using SPKRIAKRRS(CONH2) peptide as substrate assessed as SAH production incubated for 10 mins in the presence of SAM by HPLC analysis
pIC50: −log10 of the molar value.
Reported pIC50 is given for each of the following compounds.
Property Name: pIC50

1) Cc1ncsc1-c1ccc(CNC(=O)[C@@H]2C[C@H](O)CN2C(=O)[C@H](C(C)C)N2Cc3ccccc3C2=O)c(OCCNC(=O)c2ccccc2NC(=O)[C@H](CCCCN)NC(=O)[C@@H]2CCCN2C(=O)Cc2cccc3ccccc23)c1 5.62
2) Cc1ncsc1-c1ccc(CNC(=O)[C@@H]2C[C@@H](O)CN2C(=O)[C@H](C(C)C)N2Cc3ccccc3C2=O)c(OCCNC(=O)c2ccccc2NC(=O)[C@H](CCCCN)NC(=O)[C@@H]2CCCN2C(=O)Cc2cccc3ccccc23)c1 5.75

----------
- Subject Of Test: UniProt Q9BV86
- Sequence (Q9BV86 whole entry): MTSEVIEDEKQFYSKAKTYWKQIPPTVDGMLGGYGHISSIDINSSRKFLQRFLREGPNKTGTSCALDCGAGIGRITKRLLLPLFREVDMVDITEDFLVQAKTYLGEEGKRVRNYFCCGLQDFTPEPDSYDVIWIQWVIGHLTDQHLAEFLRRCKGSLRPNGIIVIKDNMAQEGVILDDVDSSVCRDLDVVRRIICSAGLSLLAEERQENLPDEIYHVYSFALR
- Test Method Notes: Inhibition of NTMT1 (unknown origin) using SPKRIAKRRS(CONH2) peptide as substrate assessed as SAH production incubated for 10 mins in the presence of SAM by HPLC analysis
Catalogue of IC50 values
Property Name: IC50 (µM)

1) NCCCC[C@H](NC(=O)[C@@H]1CCCN1C(=O)Cc1cccc2ccccc12)C(=O)Nc1ccccc1C(N)=O 4.38
2) NCCCC[C@H](NC(=O)[C@@H]1CCCN1C(=O)Cc1cccc2ccccc12)C(=O)Nc1ccccc1C(=O)O 9.18
3) Cc1ncsc1-c1ccc(CNC(=O)[C@@H]2C[C@@H](O)CN2C(=O)[C@H](C(C)C)N2Cc3ccccc3C2=O)c(OCCOCCNC(=O)c2ccccc2NC(=O)[C@H](CCCCN)NC(=O)[C@@H]2CCCN2C(=O)Cc2cccc3ccccc23)c1 2
4) Cc1ncsc1-c1ccc(CNC(=O)[C@@H]2C[C@@H](O)CN2C(=O)[C@H](C(C)C)N2Cc3ccccc3C2=O)c(OCCOCCOCCOCCNC(=O)c2ccccc2NC(=O)[C@H](CCCCN)NC(=O)[C@@H]2CCCN2C(=O)Cc2cccc3ccccc23)c1 2
